Kindly state inhibition for each of the entries shown.
Biological target: Coagulation factor X (Homo sapiens)
Experiment: Inhibition of human F10a using chromogenic substrate S-2765 preincubated for 10 mins at 0.1 uM by spectrophotometry

Please look up its inhibition: COc1ccc(-c2noc3ncn(-c4ccc(C(=O)NC5CCCCC5)cc4)c(=O)c23)cc1
72%

How about COc1ccc(-c2noc3nc(C)n(-c4ccc(N5CCOCC5=O)cc4)c(=O)c23)cc1OC ?
47%

Continue with Cc1ccc(-c2noc3ncn(-c4ccc(N5CCOCC5=O)cc4)c(=O)c23)cc1
43%

Continue with Cc1nc2onc(-c3ccc(Cl)cc3)c2c(=O)n1-c1ccc(N2CCOCC2=O)cc1
41%

Continue with O=C1COCCN1c1ccc(-n2cnc3onc(-c4ccc(Cl)cc4)c3c2=O)cc1
56%

And COc1ccc(-c2noc3ncn(-c4ccc(C(=O)N5CCCC5)cc4)c(=O)c23)cc1 ?
46%

Then this compound: COc1ccc(-c2noc3ncn(-c4ccc(C(=O)N5CCOCC5)cc4)c(=O)c23)cc1
37%

For CCc1nc2onc(-c3ccc(OC)c(OC)c3)c2c(=O)n1-c1ccc(N2CCOCC2=O)cc1 then?
42%

Consider next the compound CCN(CC)C(=O)c1ccc(-n2cnc3onc(-c4ccc(OC)cc4)c3c2=O)cc1 in the same way.
83%

# iterate: COc1ccc(-c2noc3ncn(-c4ccc(C(=O)N(C)c5ccccc5)cc4)c(=O)c23)cc1
47%

----------
Target: Coagulation factor X (Homo sapiens, UniProt P00742)
Sequence (P00742 41-179 limits assumed): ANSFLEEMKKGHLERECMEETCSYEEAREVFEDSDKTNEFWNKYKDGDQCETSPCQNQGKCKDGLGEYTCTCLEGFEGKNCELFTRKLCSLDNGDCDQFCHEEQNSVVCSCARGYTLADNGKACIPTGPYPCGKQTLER
Sequence (P00742 235-488 limits assumed): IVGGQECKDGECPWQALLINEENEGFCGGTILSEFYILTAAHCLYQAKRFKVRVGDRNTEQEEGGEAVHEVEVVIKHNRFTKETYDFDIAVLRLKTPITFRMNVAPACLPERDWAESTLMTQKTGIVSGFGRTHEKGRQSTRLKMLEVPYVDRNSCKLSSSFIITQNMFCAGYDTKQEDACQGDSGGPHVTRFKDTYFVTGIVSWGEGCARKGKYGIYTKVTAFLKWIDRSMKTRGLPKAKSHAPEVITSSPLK
Assay: Inhibition of human F10a using chromogenic substrate S-2765 preincubated for 10 mins at 0.1 uM by spectrophotometry
Active and inactive are the calls of the source. The rule behind the calls is not given here.
Test readout: inhibition

Would you please look over these solved cases?
>  <Smiles input>
COc1ccc(-c2noc3ncn(-c4ccc(N5CCOCC5=O)cc4)c(=O)c23)cc1

>  <inhibition>
78%

$$$$
>  <Smiles input>
COc1ccc(-c2noc3nc(C)n(-c4ccc(N5CCOCC5=O)cc4)c(=O)c23)cc1

>  <inhibition>
55%

$$$$
>  <Smiles input>
CCCNC(=O)c1ccc(-n2cnc3onc(-c4ccc(OC)cc4)c3c2=O)cc1

>  <inhibition>
83%

$$$$
>  <Smiles input>
COc1ccc(-c2noc3ncn(-c4ccc(N5CCOCC5=O)cc4)c(=O)c23)cc1OC

>  <inhibition>
77%

$$$$
>  <Smiles input>
Cc1nc2onc(-c3ccc([N+](=O)[O-])cc3)c2c(=O)n1-c1ccc(N2CCOCC2=O)cc1

>  <inhibition>
inactive

$$$$
>  <Smiles input>
O=C1COCCN1c1ccc(-n2cnc3onc(-c4ccccc4)c3c2=O)cc1

>  <inhibition>
27%

$$$$

Which inhibition value is on record for CCc1nc2onc(-c3ccc(OC)cc3)c2c(=O)n1-c1ccc(N2CCOCC2=O)cc1 ?
36%

Now this one: CCc1nc2onc(-c3ccc(C)cc3)c2c(=O)n1-c1ccc(N2CCOCC2=O)cc1
inactive

Also need COc1ccc(-c2noc3ncn(-c4ccc(C(=O)Nc5ccccn5)cc4)c(=O)c23)cc1 , thanks.
89%

What do we get for COc1cc(-c2noc3ncn(-c4ccc(N5CCOCC5=O)cc4)c(=O)c23)ccc1OC(C)=O ?
98%

Now consider CCc1nc2onc(-c3ccc(Cl)cc3)c2c(=O)n1-c1ccc(N2CCOCC2=O)cc1 .
inactive

Another compound: O=C1COCCN1c1ccc(-n2cnc3onc(-c4ccc([N+](=O)[O-])cc4)c3c2=O)cc1
inactive

----------
Target: Coagulation factor X (Homo sapiens, UniProt P00742)
Test readout: IC50
Could you write the number and then its unit?

Which IC50 reading was recorded for the compound COc1ccc(-c2noc3ncn(-c4ccc(C(=O)Nc5ccccn5)cc4)c(=O)c23)cc1 ?
18 nM

----------
Target: Coagulation factor X (Homo sapiens)
Assay: Inhibition of human F10a using chromogenic substrate S-2765 preincubated for 10 mins at 0.1 uM by spectrophotometry
The source made the active and inactive calls. No cut-off for these calls is given here.
Test readout: inhibition

Look over these answered cases.
>  <Smiles input>
COc1ccc(-c2noc3ncn(-c4ccc(C(=O)NC5CCCC5)cc4)c(=O)c23)cc1

>  <inhibition>
75%

$$$$
>  <Smiles input>
CCc1nc2onc(-c3ccc([N+](=O)[O-])cc3)c2c(=O)n1-c1ccc(N2CCOCC2=O)cc1

>  <inhibition>
inactive

$$$$
>  <Smiles input>
COc1ccc(-c2noc3ncn(-c4ccc(C(=O)N5CCCCC5)cc4)c(=O)c23)cc1

>  <inhibition>
54%

$$$$
>  <Smiles input>
CCc1nc2onc(-c3ccccc3)c2c(=O)n1-c1ccc(N2CCOCC2=O)cc1

>  <inhibition>
inactive

$$$$
>  <Smiles input>
Cc1ccc(-c2noc3nc(C)n(-c4ccc(N5CCOCC5=O)cc4)c(=O)c23)cc1

>  <inhibition>
inactive

$$$$

Pending molecule:
State the recorded inhibition for this entry: COc1ccc(-c2noc3ncn(-c4ccc(C(=O)Nc5ccccc5)cc4)c(=O)c23)cc1
81%
